molecular target: human PD-1 expressed on cells (CHO TREX human PD1 cell line, full-length human PD-1 sequence) (human, UniProt Q15116 21-288); test: cell-based or functional assay
Sequence (Q15116 21-288): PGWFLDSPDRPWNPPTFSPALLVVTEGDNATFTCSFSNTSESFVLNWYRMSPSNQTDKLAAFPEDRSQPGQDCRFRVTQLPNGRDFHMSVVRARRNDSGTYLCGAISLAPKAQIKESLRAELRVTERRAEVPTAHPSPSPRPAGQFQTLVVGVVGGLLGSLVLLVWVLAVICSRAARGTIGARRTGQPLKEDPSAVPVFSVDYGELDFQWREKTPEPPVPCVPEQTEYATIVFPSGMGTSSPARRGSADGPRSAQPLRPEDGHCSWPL
Here the recorded EC50 (M), NFAT-Luciferase reporter gene assay is given for each entry.
Answer in M, number only, no unit symbol.

1.64b-4GS-1.1a (other) EVQLVESGGGLVKPGGSLRLSCAASGFTFSDSSMTWMRQAPGKGLEWVSYISSGGGVKFYADSVKGRFTISRDNAKNSLYLQMNSLRADDTAVYYCAREAPLRLGESPHDAFDISGQGTMVTVSSGGGGSGGGGSGGGGSGGGGSEVQLLESGGGSVQPGRSLRLSCAASGFTFDDHAMHWVRQAPGKGLEWVSGISWNSGSMGYADSVKDRFTISRDNAKSSLYLQMNSLRAEDTALYYCVREKGPGLTGSTADYYGLDVWGQGTMVTVSS :: 3e-09

Prompt line: Look up and report measured EC50 (M), NFAT-Luciferase reporter gene assay for this entry: 1.57b-4GS-1.1a (other, Biparatopic VH-linker-VH) QVQLVESGGGLVKPGGSLRLSCAASGFTFSDNSMTWMRQAPGKGLEWVSYISSGGGVIFYADSVKGRFTISRDNAKNSLYLQMNSLRADDTAVYYCAREAPLRLGESPHDAFDISGQGTMVTVSSGGGGSGGGGSGGGGSGGGGSEVQLLESGGGSVQPGRSLRLSCAASGFTFDDHAMHWVRQAPGKGLEWVSGISWNSGSMGYADSVKDRFTISRDNAKSSLYLQMNSLRAEDTALYYCVREKGPGLTGSTADYYGLDVWGQGTMVTVSS
Response line: 1.7e-09
